- test summary: yeast display, Sf9 membrane polyspecificity reagent, FACS + sequencing; frameworks hold sequencing errors
endpoint name: polyreactivity (PSR sort gate)

- QVQLVESGGGLVQAGGSLRLSCAASGGTIVWNAMGWYRQAPGKERELVAAITWSGGSTYYADSVKGRFTISRDNAKNTVYLPMNSLQPEATAVYYCNADRFGRAHVYPEFDYWGQGTQVTVSS: low polyreactivity
- QVQLVESGGGLVQAGGSLRLSCAASGFTFARYAMGWYIQAPGKEREFVAAISLSTTSTYYADSVKGRFTISRDNAKNTVYLQMNSLKPEDTAVYYCATDIVGPHVDYWGQGTQVTVSS: low polyreactivity
- QVQLVESGGGLVQAGGSLRLSCAASGLIFGSYAMGWYRQAPGKERELVAASSRSGGSTYYADSVKGRFTISRDKAKNSVYLQMISLKPEDTAVYYFAADDYSSEYDYWGQGTQVTVSS: high polyreactivity
- QVQHVESGGGLVQAGGSLRLSCAASGRTFTPYAMGWYRQAPGKEREFVAAISIVGRTKYADSVKGRFTISRDNAKNTVYLQMNSLKPEDTAVYYCNAQDSRDRKFYWGYTRGHWGQGTQVTVSS: low polyreactivity
- QVQLVESGGGLVQAGGSLRLSCAASGLIFIAYAMGWYRQATGKERELVAAISSSGGSTYYADSVKGRFTISRDNAKNTVYLQMTSLKREDTAVYYCAADRYAWGTGRYGYWGQGTQVTVSS: low polyreactivity
- QVQLVESGGFLVQAGGSHRLSCAASGFTFQSNSMVWYRQAPGKERELVATITYSGGRTYYADSVKGRFTISRDNAKNTVYLQMNSLKPEDTAVYSCAARLAPLYRTYYYWGQGTQVTVSS: low polyreactivity
- QVQLVESGGGIVQAGGSLRLSCAASGRIFYYYAMGWYRQAPGKESELVAAISRSGGRTYYADSVKGRFTISRDNAKNTVYLHMNSLKPEDTAVYYCNVVRQGGTLGYDYWGQGTQVTVSS: high polyreactivity
- QVQLVESGGGLVQAGGSLRLSCAASGSTFTYYAMGWYSQAPGKERELVARIRASGGSTYYADSVKGRFTISRDTAKNTDYLQMNSLKPEDTAVYYCAAQLYFLYRTYDYWGQGTQVTVSS: high polyreactivity
- QVQLVVSGGGLVQAGGSLRLSCAASGRTFPGNAMGGYRQAPGKERELVASINGRTTRTYYADSVKGRFTISRDNAKNTVYLQMNSLKPEDTAVYYCAADPPGYVYGKRYYWGQGTQVTVSS: high polyreactivity
- QVHLVESVGGLVQAGGSLSLSCAASGLIFDGYAMGWYRQAPGKERDLVAAITWRGGRTYADSVKGRFTISRDNAKNTVYLQMNSLQPEVTAVYYCAVRRWGTSFVEDDYWGQGTQVTVSS: low polyreactivity
- QVQLVESGGGLVQAGGSLRLSCAASGNIFDGYAMGWYRQAPGKERELVAAITSSAGSTYYADSVKGRFTISRDNAKNTVYLQMNSLKPEDTAVYYCNKVTKYRPIEGSWGQGTQVTVSS: high polyreactivity
- QVQLVESGGGLVQAGGTLRFSCAASGSILEYYTMGWDRQAPGKERELVAAISASGGNTYYADSVKGRFTISRANAKNTVYFQMNSLKPEDTAVYYCNAYYGPRGYGYWGQGTQVTVSS: high polyreactivity
- QVQLVESGGGLVQAGGSLRISCAASGFIFYSYPMGWYRQAPGKERELVAAISTSGGSTYYADSVKGRFTISRDNAKNTVYLQMNSLKPEDTAVYYCAVGRKFGRYRVPFVVPYEYWGHGTQVTVSS: high polyreactivity
- QVQHVESGGGLVQAGGSLRLSCDASGLTISWYAMGWYRQAPGKEREMVAAISKRGGSTYYADSVKGRFTISRDNAKNTVYLQMNSLKPEDTAVYYCNARSPYTGWTLDYWGQGTQVTVSS: high polyreactivity
- QVQLVDSGGGLVQAGGSLRLSCAASGSIFRGYAMGWYRPAPGKESGLVAAISRDGGSTYYADSVKGRFTISRDNAKNTVYLQMNSLKPEDTAVYYCAADYVAYATYGDGDYWGQGTQVTVSS: high polyreactivity
- QVQLVESGGGLVQAGGSLRLSCAASGSTFDYYAMGWYREAPGKERELVAGITSDGSTYYADSVKGRFTISRDNAKNTVYLQMNSLKPEDTAVYYCNKAPYHWPYEYWGQGTQVTVSS: low polyreactivity
- QVQLVESGGGLVQAGGSLRLSCAASGLTFGRNAMGWYRQAPWKERELVAAISRSGGRTSYADSVKGRFTISRDNAKNTVYLQMNSLKPEDTAVYYCAARSDVYTHDYWGQGTQVTVSS: high polyreactivity
- QVQLVESGGGLVQAGGSLRLSCAASGRIFSQYAMGWYRQAPGKERELVAAISRRTGSTYYADSVKGRFTISRDNAKNTVYLQMNSLKPEDTAVYYCNKARLGWSYRQDDYWGQGTQVTVSS: high polyreactivity
- QVQLVESAAGLVQAGGSLRISCAASGYTFWLYAMGWYRQAPGKEREFVAAISTSGGSTYADSVKGRFTISRDNAKNTVYLQMNSLKPEDTAVYYCNAGYLLYYDYHLFYWGQGTQVTVSS: low polyreactivity
- QVQLVESGGGLVQAGGSLRLSCAASGIIFASNGMGWYRQAPGKERELLAAISSGGSTNYADSVKGRFTISRDNAKNTVYLQMNSLKPEDTAVYYCSTSGPQYYSRNFDYWGLGTQVTVSS: low polyreactivity
- QVQLVESGGGLVQAGGSHRISCAASGSTFPGYPMGWYRQAPGKERELVAAGGSTYYADSVKGRFTISRDNAKNTVYLQINSLKPEDTAVYYCAATWGSVQKGTYYYWGQGTQVTVSS: low polyreactivity

From: the nanobody polyreactivity screen of Harvey et al. (2022)
